# experiment.summary: DRUGMATRIX: Potassium Channel [KATP] radioligand binding (ligand: [3H] Glyburide)
# Assay type: cell membranes, Membrane
# settings: hit-t15; Not Active = under 50% inhibition at 10 µM
endpoint.label: Ki

N#C[C@H](O[C@@H]1O[C@H](CO[C@@H]2O[C@H](CO)[C@@H](O)[C@H](O)[C@H]2O)[C@@H](O)[C@H](O)[C@H]1O)c1ccccc1 ... Not Active
C[C@]12Cc3c[nH]nc3C[C@@H]1CC[C@@H]1[C@@H]2CC[C@@]2(C)[C@H]1CC[C@]2(C)O ... Not Active
O=C(O)c1cn(C2CC2)c2cc(N3CCNCC3)c(F)cc2c1=O ... Not Active

----------
# tested.system: Mitogen-activated protein kinase 14 (Homo sapiens, UniProt Q16539); note: in other assays of this panel Not Active means under 50% inhibition at 10 µM;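 note: inhibition of p38alpha enzyme activity in a biochemical kinase assay, with myelin basic protein serving as substrate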
# Sequence (Q16539 whole entry): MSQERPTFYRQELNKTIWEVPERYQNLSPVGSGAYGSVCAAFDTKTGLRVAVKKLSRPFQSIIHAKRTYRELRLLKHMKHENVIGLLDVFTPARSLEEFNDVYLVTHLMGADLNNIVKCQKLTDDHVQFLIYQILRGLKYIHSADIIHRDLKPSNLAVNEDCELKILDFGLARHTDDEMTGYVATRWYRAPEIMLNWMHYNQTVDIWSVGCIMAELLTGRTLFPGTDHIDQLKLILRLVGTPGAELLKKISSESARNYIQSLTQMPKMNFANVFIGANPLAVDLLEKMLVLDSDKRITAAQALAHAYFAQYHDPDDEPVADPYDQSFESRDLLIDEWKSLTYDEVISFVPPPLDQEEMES
# Design: species or system Escherichia coli
endpoint.label: IC50

Sample answers from the record:
COc1ccc(C(CN(C)C)C2(O)CCCCC2)cc1 (centres undefined) ... Not Active
NCC(=O)O ... Not Active
CC(C)[C@H](N)C(=O)OCCOCn1cnc2c(=O)nc(N)[nH]c21 ... Not Active
CC=CC(=O)N(CC)c1ccccc1C ... Not Active
COc1ccc(CCN2CCC(Nc3nc4ccccc4n3Cc3ccc(F)cc3)CC2)cc1 ... Not Active

Please give the measured IC50 for this compound: C=C1[C@@H]2CCC3[C@@](CC[C@@H]4[C@H](C(=O)O)C[C@@H](O[C@@H]5O[C@H](CO)[C@@H](OS(=O)(=O)[O-])[C@H](OS(=O)(=O)[O-])[C@H]5OC(=O)CC(C)C)C[C@@]34C)(C2)[C@@H]1O.[K+].[K+] (some centres undefined) [ATRACTYLOSIDE] Not Active

Please give the measured IC50 for this compound: CC(=O)O[C@]1(C(C)=O)CC[C@H]2[C@@H]3C=C(Cl)C4=CC(=O)CC[C@]4(C)[C@H]3CC[C@@]21C [CHLORMADINONE ACETATE] Not Active

Please give the measured IC50 for this compound: "OCc1ccccc1" Not Active

Please give the measured IC50 for this compound: NS(=O)(=O)c1cc2c(cc1Cl)NCNS2(=O)=O [HYDROCHLOROTHIAZIDE] Not Active

----------
# tested.system: UniProt:P08912
# Sequence (P08912 whole entry): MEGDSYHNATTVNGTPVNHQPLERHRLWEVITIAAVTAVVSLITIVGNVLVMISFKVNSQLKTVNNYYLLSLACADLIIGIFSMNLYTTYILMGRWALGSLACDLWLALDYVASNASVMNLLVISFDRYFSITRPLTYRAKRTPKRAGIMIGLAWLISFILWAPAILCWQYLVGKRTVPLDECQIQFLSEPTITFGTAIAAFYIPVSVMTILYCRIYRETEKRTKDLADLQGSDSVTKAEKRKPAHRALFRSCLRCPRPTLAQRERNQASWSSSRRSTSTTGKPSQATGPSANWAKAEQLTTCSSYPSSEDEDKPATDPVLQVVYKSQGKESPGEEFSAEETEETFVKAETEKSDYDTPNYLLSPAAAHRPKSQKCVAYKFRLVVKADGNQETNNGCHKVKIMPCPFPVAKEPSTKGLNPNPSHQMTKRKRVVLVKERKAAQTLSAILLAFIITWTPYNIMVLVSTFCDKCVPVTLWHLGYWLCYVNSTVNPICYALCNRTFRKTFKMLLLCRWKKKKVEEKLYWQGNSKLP
# Type: cell membranes, CHO-K1, Membrane
# settings: read-out: Ki
Flag rule - Ki less than 200 nM flags 1.0; the remaining entries get 0.0.

Confirm or reject: Ki of CN1[C@@H]2CC[C@H]1C[C@@H](OC(=O)c1c[nH]c3ccccc13)C2 [TROPISETRON] lies strictly below 200 nM 0.0

Confirm or reject: Ki of CN1CCN2c3ccccc3Cc3ccccc3C2C1 (stereo not given) [MIANSERIN] lies strictly below 200 nM 0.0

Confirm or reject: Ki of COc1ccc(CCN2CCC(Nc3nc4ccccc4n3Cc3ccc(F)cc3)CC2)cc1 [ASTEMIZOLE] lies strictly below 200 nM 0.0

Confirm or reject: Ki of CN(C)CCCN1c2ccccc2CCc2ccc(Cl)cc21 [CLOMIPRAMINE] lies strictly below 200 nM 1.0

Confirm or reject: Ki of CNCCC=C1c2ccccc2CCc2ccccc21 [NORTRIPTYLINE] lies strictly below 200 nM 1.0

----------
# tested.system: 5-hydroxytryptamine receptor 6 (Homo sapiens, UniProt P50406); note: in other assays of this panel Not Active means under 50% inhibition at 10 µM
# Sequence (P50406 whole entry): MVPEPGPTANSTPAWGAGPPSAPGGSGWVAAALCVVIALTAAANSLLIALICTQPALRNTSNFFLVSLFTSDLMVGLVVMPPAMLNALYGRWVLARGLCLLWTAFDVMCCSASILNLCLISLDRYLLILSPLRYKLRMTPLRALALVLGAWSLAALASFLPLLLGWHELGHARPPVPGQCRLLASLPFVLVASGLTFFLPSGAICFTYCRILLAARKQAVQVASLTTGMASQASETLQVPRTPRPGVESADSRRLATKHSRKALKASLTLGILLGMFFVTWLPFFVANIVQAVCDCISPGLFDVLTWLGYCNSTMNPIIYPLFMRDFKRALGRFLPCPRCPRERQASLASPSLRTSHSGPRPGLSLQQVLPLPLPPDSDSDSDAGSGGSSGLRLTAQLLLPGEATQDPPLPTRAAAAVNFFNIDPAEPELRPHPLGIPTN
# Assay type: cell membranes, HeLa, Membrane
# settings: hela
endpoint.label: IC50

NCCCC[C@H](N[C@@H](CCc1ccccc1)C(=O)O)C(=O)N1CCC[C@H]1C(=O)O [LISINOPRIL ANHYDROUS] ... Not Active
CN1C(C(=O)Nc2ccccn2)=C(O)c2ccccc2S1(=O)=O ... Not Active
CC(C)(O)c1ccccc1CC[C@@H](SCC1(CC(=O)O)CC1)c1cccc(/C=C/c2ccc3ccc(Cl)cc3n2)c1 ... Not Active
NC(CO)(CO)CO ... Not Active

----------
# tested.system: Alpha-2C adrenergic receptor (Homo sapiens)
# Sequence (P18825 whole entry): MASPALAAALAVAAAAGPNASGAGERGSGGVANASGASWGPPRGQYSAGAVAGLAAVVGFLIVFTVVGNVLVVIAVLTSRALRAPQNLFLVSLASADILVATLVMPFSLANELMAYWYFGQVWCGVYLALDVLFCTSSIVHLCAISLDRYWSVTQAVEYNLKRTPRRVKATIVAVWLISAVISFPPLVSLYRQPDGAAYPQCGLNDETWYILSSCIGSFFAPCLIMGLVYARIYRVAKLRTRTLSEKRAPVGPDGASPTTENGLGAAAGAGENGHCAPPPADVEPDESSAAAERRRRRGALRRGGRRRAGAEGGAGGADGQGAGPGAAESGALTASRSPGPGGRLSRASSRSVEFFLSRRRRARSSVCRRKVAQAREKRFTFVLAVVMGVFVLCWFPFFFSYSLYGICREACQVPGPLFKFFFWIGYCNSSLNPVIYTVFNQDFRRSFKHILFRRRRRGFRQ
# experiment.summary: DRUGMATRIX: Adrenergic Alpha-2C radioligand binding (ligand: [3H] MK-912)
# Type: cell membranes, Sf9, Membrane
# settings: sf9; read-out: Ki
endpoint.label: pKi
Please keep in mind that pKi is minus log10 of the molar concentration; only the number is needed.

Please give the measured pKi for this sequence: "IVERMECTIN" 6.24

----------
# tested.system: UniProtKB P51679
# Sequence (P51679 whole entry): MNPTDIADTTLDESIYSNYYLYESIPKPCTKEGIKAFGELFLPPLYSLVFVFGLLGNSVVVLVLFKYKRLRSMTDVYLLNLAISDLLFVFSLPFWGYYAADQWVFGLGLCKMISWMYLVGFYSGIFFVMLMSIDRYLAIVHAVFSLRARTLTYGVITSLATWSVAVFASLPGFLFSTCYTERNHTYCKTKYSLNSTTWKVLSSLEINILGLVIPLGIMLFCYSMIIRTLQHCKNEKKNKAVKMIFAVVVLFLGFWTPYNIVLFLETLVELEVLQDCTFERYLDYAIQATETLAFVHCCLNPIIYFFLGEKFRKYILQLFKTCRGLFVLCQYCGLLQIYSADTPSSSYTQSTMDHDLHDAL
# Assay type: cell membranes, Membrane
# settings: chem-1
endpoint.label: IC50

CC1(C)[C@H]2CC[C@]1(C)C(=O)C2 [(-)-CAMPHOR] ... Not Active
c1ccc2c(c1)cc1ccc3cccc4ccc2c1c34 ... Not Active
C=C1CC[C@H](O)C/C1=C/C=C1\CCC[C@]2(C)[C@@H]([C@H](C)/C=C/[C@H](C)C(C)C)CC[C@@H]12 ... Not Active
CC(=O)[C@H]1CC[C@H]2[C@@H]3CCC4=CC(=O)CC[C@]4(C)[C@H]3CC[C@]12C ... Not Active
CN1[C@@H]2CC[C@H]1C[C@@H](OC(=O)c1c[nH]c3ccccc13)C2 ... Not Active

Read the next record carefully.
Please give the measured IC50 for this compound: "O=C1OCCN1/N=C/c1ccc([N+](=O)[O-])o1" Not Active

----------
# experiment.summary: DRUGMATRIX: Calcium Channel Type L, Phenylalkylamine radioligand binding (ligand: [3H] (-)-Desmethoxyverapamil (D-888))
# Format: cell membranes, Rattus norvegicus, Wistar, Brain, Membrane
# settings: Not Active = under 50% inhibition at 10 µM
endpoint.label: IC50

N=C(N)NCCCCNC(=N)N.O=S(=O)(O)O [ARCAINE SULFATE] ... Not Active
CC1(C)S[C@@H]2[C@H](NC(=O)[C@H](N)c3ccc(O)cc3)C(=O)N2[C@H]1C(=O)O [AMOXICILLIN] ... Not Active
NCC[C@H](O)C(=O)N[C@@H]1C[C@H](N)[C@@H](O[C@H]2O[C@H](CN)[C@@H](O)[C@H](O)[C@H]2O)[C@H](O)[C@H]1O[C@H]1O[C@H](CO)[C@@H](O)[C@H](N)[C@H]1O [AMIKACIN] ... Not Active

----------
# experiment.summary: DRUGMATRIX: Leukotriene, BLT (LTB4) radioligand binding (ligand: [3H]LTB4)
# Type: cell membranes, Membrane
# settings: u-937; Not Active = under 50% inhibition at 10 µM
endpoint.label: IC50

Sample answers from the record:
O=C1CCc2cc(OCCCCc3nnnn3C3CCCCC3)ccc2N1 ... Not Active
C[C@]12Cc3c[nH]nc3C[C@@H]1CC[C@@H]1[C@@H]2CC[C@@]2(C)[C@H]1CC[C@]2(C)O ... Not Active
NNc1ccccc1 [PHENYLHYDRAZINE] ... Not Active
Cc1c(-c2ccccc2)oc2c(C(=O)OCCN3CCCCC3)cccc2c1=O [FLAVOXATE] ... Not Active
CC(=O)OCC(=O)[C@@]1(OC(C)=O)[C@@H](C)C[C@H]2[C@@H]3C[C@H](F)C4=CC(=O)C=C[C@]4(C)[C@@]3(F)[C@@H](O)C[C@@]21C [DIFLORASONE DIACETATE] ... Not Active
C=C1C(=O)O[C@@H]2C3O[C@]3(C)CC/C=C(\C)CC[C@@H]12 (stereo partly specified) ... Not Active
CC1=C(/C=C/C(C)=C/C=C/C(C)=C\C(=O)O)C(C)(C)CCC1 ... Not Active
O=c1cc(-c2ccccc2)oc2c1ccc1ccccc12 ... Not Active

Read the next record carefully.
Please give the measured IC50 for this molecule: COc1c(C)c2c(c(O)c1C/C=C(\C)CCC(=O)OCCN1CCOCC1)C(=O)OC2 [MYCOPHENOLATE MOFETIL] Not Active

----------
# tested.system: Substance-P receptor (Homo sapiens); note: in other assays of this panel Not Active means under 50% inhibition at 10 µM
# Sequence (P25103 whole entry): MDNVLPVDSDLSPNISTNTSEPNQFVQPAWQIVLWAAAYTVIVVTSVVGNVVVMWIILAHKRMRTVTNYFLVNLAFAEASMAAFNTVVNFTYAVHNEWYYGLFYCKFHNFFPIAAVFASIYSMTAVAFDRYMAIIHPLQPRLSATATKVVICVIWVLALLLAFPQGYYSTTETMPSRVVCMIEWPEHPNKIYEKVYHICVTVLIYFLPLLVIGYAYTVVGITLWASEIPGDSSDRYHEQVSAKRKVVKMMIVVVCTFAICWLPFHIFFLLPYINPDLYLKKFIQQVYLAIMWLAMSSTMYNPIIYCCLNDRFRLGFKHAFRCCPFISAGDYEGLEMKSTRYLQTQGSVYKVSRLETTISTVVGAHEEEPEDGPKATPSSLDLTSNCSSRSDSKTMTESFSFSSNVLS
# Type: cell membranes, CHO, Membrane
# settings: cho
endpoint.label: IC50

CCOC(=O)OC(C)OC1=C(C(=O)Nc2ccccn2)N(C)S(=O)(=O)c2ccccc21 (configuration not stated) ... Not Active
OCc1ccccc1 ... Not Active
C=C1[C@@H]2CCC3[C@@](CC[C@@H]4[C@H](C(=O)O)C[C@@H](O[C@@H]5O[C@H](CO)[C@@H](OS(=O)(=O)[O-])[C@H](OS(=O)(=O)[O-])[C@H]5OC(=O)CC(C)C)C[C@@]34C)(C2)[C@@H]1O.[K+].[K+] (some centres not stated) [ATRACTYLOSIDE] ... Not Active
CC(C)(C)NCC(O)c1cc(O)cc(O)c1 (configuration not stated) ... Not Active
CC(=O)OCC(=O)[C@@]1(OC(C)=O)[C@@H](C)C[C@H]2[C@@H]3C[C@H](F)C4=CC(=O)C=C[C@]4(C)[C@@]3(F)[C@@H](O)C[C@@]21C [DIFLORASONE DIACETATE] ... Not Active
COc1ccc2c(c1)c(CC(=O)OCC(=O)O)c(C)n2C(=O)c1ccc(Cl)cc1 ... Not Active
COc1cc(C(=O)NC2CCCNC2)cc(OC)c1OC (configuration not stated) [TROXIPIDE] ... Not Active
NS(=O)(=O)c1cc2c(cc1Cl)NCNS2(=O)=O [HYDROCHLOROTHIAZIDE] ... Not Active
Oc1c(Cl)cc(Cl)cc1Sc1cc(Cl)cc(Cl)c1O ... Not Active
NNC(=O)c1ccncc1 ... Not Active

Please give the measured IC50 for this molecule: "COC1=CC(=O)C[C@@H](C)[C@]12Oc1c(Cl)c(OC)cc(OC)c1C2=O" Not Active

Please give the measured IC50 for this molecule: "NCC[C@H](O)C(=O)N[C@@H]1C[C@H](N)[C@@H](O[C@H]2O[C@H](CN)[C@@H](O)[C@H](O)[C@H]2O)[C@H](O)[C@H]1O[C@H]1O[C@H](CO)[C@@H](O)[C@H](N)[C@H]1O" Not Active
